Recorded values, source the SangsterLogP compilation.

Assay: method code SF, from DOI: 10.1016/0223-5234(96)88223-7
Measured logP by item
Hey, just send me the number, nothing else.

{"columns": ["Smiles Structure", "logP"],
 "data": [
  ["Clc1ccc(Cc2nc3ccc(Cl)cc3[nH]2)cc1", 5.18],
  ["Cc1ccc(-c2nc3ccc([N+](=O)[O-])cc3[nH]2)c(C)c1", 4.1],
  ["Cc1ccccc1-c1nc2ccc([N+](=O)[O-])cc2[nH]1", 3.42],
  ["COc1ccc(Cc2nc3ccc([N+](=O)[O-])cc3[nH]2)cc1", 3.48],
  ["Clc1ccc(-c2nc3ncccc3[nH]2)cc1", 2.95]
]}

Exercise: Record request: logP value, item `COc1ccc(-c2nc3ccc(C)cc3[nH]2)c(OC)c1`
Key: 3.78

Exercise: Record request: logP value, item `Cc1ccc(Cc2nc3ccc(Cl)cc3[nH]2)cc1`
Key: 5.21

Exercise: Record request: logP value, item `COc1ccccc1-c1nc2ccccc2[nH]1`
Key: 3.02

Exercise: Record request: logP value, item `CCc1ccc(-c2nc3ncccc3[nH]2)cc1`
Key: 3.42
